# Tested on: human T cell
# measurement protocol: CD73 cellular assay (T cell stimulation assay: CellTiter-Glo proliferation and IFN-γ ELISA)
# Format: cell-based
# condition label: human T cells, anti-CD3/CD28, AMP + EHNA, 72 hours, read-out: EC50 IFN-γ (ELISA, indicator for T-cell activity)
pEC50: −log10 of the molar value.
# pEC50 per entry

compound	system	pEC50
O=P(O)(O)CP(=O)(O)OC[C@H]1O[C@@H](n2cnc3c(N4CC5(CCc6ccccc65)C4)nc(Cl)nc32)[C@@H](O)C1O (stereo partly drawn)	human T cell	8.84
O=P(O)(O)CP(=O)(O)OC[C@H]1O[C@@H](n2cnc3c(N4CCC(c5ccccc5)(c5ccccc5)C4)nc(Cl)nc32)C(O)C1O (stereo partly drawn)	human T cell	8.60
O=P(O)(O)CP(=O)(O)OC[C@H]1O[C@@H](n2cnc3c(N4CCC5(CCCCC5)C4)nc(Cl)nc32)[C@@H](O)C1O (stereo partly drawn) [Compound b, reference compound]	human T cell	7.85
